subject.of.test: FN (Homo sapiens)
Construct: fragment 3 of recombinant human FN-1 (R&D Systems); purchased R&D Systems
Sequence (P02751 607-1265 limits assumed): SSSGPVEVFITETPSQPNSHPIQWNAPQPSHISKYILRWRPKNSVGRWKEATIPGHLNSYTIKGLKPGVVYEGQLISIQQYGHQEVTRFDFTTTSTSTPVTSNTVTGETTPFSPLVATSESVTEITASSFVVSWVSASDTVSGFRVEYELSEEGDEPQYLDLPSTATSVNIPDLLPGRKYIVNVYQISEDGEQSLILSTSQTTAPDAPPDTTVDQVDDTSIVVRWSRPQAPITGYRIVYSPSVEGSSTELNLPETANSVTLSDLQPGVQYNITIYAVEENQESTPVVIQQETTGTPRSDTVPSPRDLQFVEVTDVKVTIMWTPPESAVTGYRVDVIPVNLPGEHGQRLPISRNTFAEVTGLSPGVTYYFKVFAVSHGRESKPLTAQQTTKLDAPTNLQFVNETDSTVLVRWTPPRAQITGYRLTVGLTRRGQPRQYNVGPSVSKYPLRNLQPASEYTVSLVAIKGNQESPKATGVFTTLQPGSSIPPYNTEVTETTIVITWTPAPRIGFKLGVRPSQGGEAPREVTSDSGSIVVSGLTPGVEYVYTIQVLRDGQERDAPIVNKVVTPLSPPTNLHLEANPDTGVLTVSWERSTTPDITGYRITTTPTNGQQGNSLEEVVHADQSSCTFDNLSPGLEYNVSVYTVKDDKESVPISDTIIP
assay.procedure: ELISA of biotinylated peptides, K*d for FN
Type: binding
condition.parameters: Fig. 1a, 2 h at 37 °C, read-out: Kd: FN, synthesized peptides
Description: Serial dilutions of biotinylated peptides were incubated with IL-7Rα or FN immobilized on ELISA plates as described above and blocked with protein-free blocking buffer (PFBB) (Perbioscience, Erembodegem, Belgium). Peptides bound to the target were detected with a goat anti-biotin antibody, followed by a peroxidase-conjugated anti-goat antibody made in horse (both from Vector Labconsult, Brussels, Belgium). […] The protocol is largely described in Additional file 1: Methods. […]
Where no end group is shown, it is not given here.
measured.endpoint: Kd (nM)
The figure you give is taken to be in nM; do not add the unit.

Reported Kd for FN (Homo sapiens), given ASACPPH-NH2 [Peptide P258] ?
1800
